Data origin, for the record: patent US20220282217A1

- TARGET_UNDER_TEST: HLA-A24.02 (human)
- EXPERIMENT_SUMMARY: pMHC-I complex dissociation at 37 C, 125I-b2m, half-life
- CONDITION_NOTES: remark: other sources report otherwise
REPORTED_ENDPOINT: Stability (T1/2 (h))

>  <BINDER>
FLPSTLKSL

>  <UNIT_SPEC>
h

>  <MEASURED_VALUE>
1

$$$$

(A) PLYGLLLEML
(B) IMQLMPFGCL
Could you kindly indicate whether A or B has the higher Stability (T1/2 (h)) value? Provide the label of your selected option as the answer.
A
